tested on: HaCat; assay: Cytotoxic Profiling of Annotated Libraries Using Quantitative High-Throughput Screening (AID 1296008); conditions: Five cell lines viability, CellTiter-Glo ATP luminescence, 48-72 h; stronger effect = lower value; note: % is set by controls: 0 for no effect and ±100 for the full control effect
Records with an inconclusive call do not appear.
measurement_kind: max response (%)
One number for each entry, in %.

# count of solved cases: 5
{"columns": ["compound", "max response / %"],
 "data": [
  ["O=C1CN(/N=C/c2ccc([N+](=O)[O-])o2)C(=O)N1", 1.83],
  ["O=c1[nH]c2ccccc2n1CCCN1CCN(C(c2ccccc2)c2ccccc2)CC1", -21.6],
  ["COc1cc2c3cc1Oc1cc(ccc1O)C[C@@H]1c4c(cc(OC)c(O)c4Oc4ccc(cc4)C[C@@H]3N(C)CC2)CC[N+]1(C)C", 1.8],
  ["CCOC(=O)c1ccccc1O", -10.3],
  ["COC(=O)C1=C(C)NC(C)=C(C(=O)OCC(C)C)C1c1ccccc1[N+](=O)[O-] (stereo not given)", 0.281]
]}

Hi, could you look up max response for each item in my list?
1. CCCCCCOc1ccccc1C(N)=O
2. CC1(C)[C@@H](O)CC[C@]2(C)[C@H]3C(=O)C=C4[C@@H]5C[C@@](C)(C(=O)O)CC[C@]5(C)CC[C@@]4(C)[C@]3(C)CC[C@@H]12
3. CN(C)c1ccc(N=NS(=O)(=O)O)cc1
4. CN(CCCOc1ccc(Cc2ccccc2)cc1)CCC(=O)O
5. O=C(O)[C@H](CC(=O)N1C[C@H]2CCCC[C@H]2C1)Cc1ccccc1
6. O=C(Nc1ccc2c(c1)CCN(Cc1ncn[nH]1)C2)c1ccccc1-c1ccc(C(F)(F)F)cc1
7. c1ccc2sc(SSc3nc4ccccc4s3)nc2c1
8. O=[N+]([O-])c1ccc(CNc2nc(NCc3cccc(C(F)(F)F)c3)nc3nc[nH]c23)cc1

Reply |
[-20.5, -15.3, -1.75, -16.1, -9.54, 0.241, -2.36, 0.807]

// each compound listed below needs its max response
1. O=C(Nc1ccc2[nH]ncc2c1)C1CCC1
2. CCCCN(CC)c1nc(C)nc2c1c(C)cn2-c1c(C)cc(C)cc1C
3. CCCCCCCCCCCCOCCO
4. CC(=O)c1ccc(OCC(=O)N2CCCCC2)cc1

Reply |
[-2.65, 4.42, -12.4, -0.673]

# per-item lookup of max response; items listed below
1. CC1(C)[C@@H](O[C@H]2O[C@H](C(=O)O)[C@@H](O)[C@H](O)[C@H]2O[C@@H]2O[C@H](C(=O)O)[C@@H](O)[C@H](O)[C@H]2O)CC[C@]2(C)[C@H]3C(=O)C=C4[C@@H]5C[C@@](C)(C(=O)O)CC[C@]5(C)CC[C@@]4(C)[C@]3(C)CC[C@@H]12
2. C[C@H](O)[C@H](O)[C@H]1CNc2nc(N)[nH]c(=O)c2N1

Reply |
1. -32.3
2. 1.87

Ask | Given the entry `CCCSc1ccc2nc(NC(=O)OC)[nH]c2c1` , report its measured max response.
Reply | -6.26
